- testedTarget: T1, NativeRPtag(large)_with_Tags_and_Cys (Thermoanaerobacter tengcongensis)
- T1 construct: Unlabeled in anisotropy assays; coupled through the engineered N-terminal Cys to SulfoLink agarose or maleimide plates in column, pull-down and ELISA assays
- T1 chain: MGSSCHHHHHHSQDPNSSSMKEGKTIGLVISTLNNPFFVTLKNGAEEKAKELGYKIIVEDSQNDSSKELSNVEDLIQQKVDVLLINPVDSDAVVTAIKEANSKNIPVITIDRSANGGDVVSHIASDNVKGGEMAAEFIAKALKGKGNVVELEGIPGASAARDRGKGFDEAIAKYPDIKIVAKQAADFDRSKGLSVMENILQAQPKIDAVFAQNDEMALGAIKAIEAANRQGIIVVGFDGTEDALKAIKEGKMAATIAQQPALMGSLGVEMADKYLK
- experimentalDetails: fluorescence anisotropy; MnSO4 (10 mM)
No end group written: not given here. *: point of attachment. RhodamineB = CCN(CC)c1ccc2c(-c3ccccc3C(=O)*)c3ccc(=[N+](CC)CC)cc-3oc2c1
endpointName: Kd (nM)
Respond numerically; units are nM and should not be typed.

RhodamineB-KIANFIPAELKLITKANVQ (also: also used unlabeled as competitor, Rhodamine labeled in the Kd assays; also called RPtag(small) (tight)) [RPtag(small) Nd2, p5a, e18a] :: 22

Shift focus to the following entry.
Quickly give me recorded Kd for RhodamineB-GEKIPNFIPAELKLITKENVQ (Synthetic peptide) [native RPtag(small)]
160
